Readings of kon for the listed binders
Biological target: T1, soluble human GPNMB (recombinant extracellular domain) (human, UniProt Q14956 23-498)
T1 construct: also called huGPNMB; recombinant human GPNMB extracellular domain; not shown: C-terminal polyhistidine or Avi-His tag
T1 sequence: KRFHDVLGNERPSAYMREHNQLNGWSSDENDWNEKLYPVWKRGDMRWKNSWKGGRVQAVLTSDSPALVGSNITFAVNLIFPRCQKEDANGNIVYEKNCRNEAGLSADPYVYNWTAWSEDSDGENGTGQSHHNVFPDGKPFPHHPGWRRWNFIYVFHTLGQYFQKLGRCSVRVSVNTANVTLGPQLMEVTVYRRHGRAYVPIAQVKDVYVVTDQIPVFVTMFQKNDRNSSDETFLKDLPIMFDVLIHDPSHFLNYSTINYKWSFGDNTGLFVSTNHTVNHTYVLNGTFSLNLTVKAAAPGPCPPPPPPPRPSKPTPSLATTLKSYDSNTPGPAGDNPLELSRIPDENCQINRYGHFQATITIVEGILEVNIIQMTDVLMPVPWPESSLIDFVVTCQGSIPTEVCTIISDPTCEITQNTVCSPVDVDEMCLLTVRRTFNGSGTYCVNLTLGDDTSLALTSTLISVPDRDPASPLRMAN
Assay: SPR Biacore, IgG captured

- binder: "anti-GPNMB antibody GPN-88 (antibody, V domains shown) VH: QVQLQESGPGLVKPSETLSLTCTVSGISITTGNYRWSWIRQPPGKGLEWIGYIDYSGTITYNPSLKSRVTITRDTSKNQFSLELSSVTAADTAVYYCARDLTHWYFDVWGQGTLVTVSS VL: DIVMTQSPDSLAVSLGERATINCKSSRSVDYYGIGFLNWYQQKPGQPPKLLIYATSHQGSGVPDRFSGSGSGTDFTLTISSLQAEDVAVYYCQQQKHVPPTFGGGTKVEIK"
  result-units: "M⁻¹ s⁻¹"
  kon: 200000
- binder: "anti-GPNMB antibody GPN-95 (antibody, V domains shown, also called PGN-95) VH: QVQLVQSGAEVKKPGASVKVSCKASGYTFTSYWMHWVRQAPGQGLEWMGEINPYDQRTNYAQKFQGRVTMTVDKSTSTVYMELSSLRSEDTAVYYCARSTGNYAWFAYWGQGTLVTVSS VL: DIVMTQSPDSLAVSLGERATINCKTSQDVSPSLAWYQQKPGQPPKLLIYSARYRYTGVPDRFSGSGSGTDFTLTISSLQAEDVAVYYCQQHYSIPLQFGGGTKVEIK"
  result-units: "M⁻¹ s⁻¹"
  kon: 73000
- binder: "anti-GPNMB antibody GPN-85 (antibody, V domains shown) VH: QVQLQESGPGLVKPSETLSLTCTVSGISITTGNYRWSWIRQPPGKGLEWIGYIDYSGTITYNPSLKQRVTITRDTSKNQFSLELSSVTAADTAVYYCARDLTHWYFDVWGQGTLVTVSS VL: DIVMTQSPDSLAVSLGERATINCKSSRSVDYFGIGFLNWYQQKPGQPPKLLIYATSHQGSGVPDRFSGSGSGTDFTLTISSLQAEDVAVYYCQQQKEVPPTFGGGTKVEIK"
  result-units: "M⁻¹ s⁻¹"
  kon: 170000
